Test system: houseflies (Musca domestica)
Test: Biological Test 4: mortality of female houseflies low sensitive to pyrethroids, treated filter paper
Format: in vivo
Conditions: 24 h
Experimental: Filter paper of 5.5 cm in diameter was laid in the bottom of a polyethylene cup (diameter: 5.5 cm). After 0.7 ml of a 500 ppm aqueous emulsion obtained by diluting each emulsifiable concentrate prepared according to the formulation example 1 was dropped on the filter paper and approximately 30 mg of sucrose as bait was uniformly scattered. Ten female houseflies (Musca domestica), which were low sensitive to pyrethroids, were left in the cup with a cover. After one day, the mortality was examined.
READOUT_LABEL: mortality at 500 ppm (%)

compound="C=CCc1ccc(COC(=O)[C@@H]2[C@H](/C=C(\\Cl)C(F)(F)F)C2(C)C)o1 (relative stereo)" recorded_result=100
compound="Cc1ccc(COC(=O)[C@@H]2[C@H](/C=C(\\Cl)C(F)(F)F)C2(C)C)o1 (relative stereo)" recorded_result=100
compound="CCc1ccc(COC(=O)[C@@H]2[C@H](/C=C(\\Cl)C(F)(F)F)C2(C)C)o1 (relative stereo)" recorded_result=100
compound="CCCc1ccc(COC(=O)[C@@H]2[C@H](/C=C(\\Cl)C(F)(F)F)C2(C)C)o1 (relative stereo)" recorded_result=100

###

system: tobacco cutworm (Spodoptera litura); experiment: Biological Test 1: mortality of larvae on impregnated artificial bait; assay type: in vivo; conditions: 144 h, read-out: mortality of the larvae
Property: mortality at 500 µg/mL; scope: individual compounds
READOUT_LABEL: mortality at 500 µg/mL (%)

compound="Cc1ccc(COC(=O)[C@@H]2[C@H](/C=C(\\Cl)C(F)(F)F)C2(C)C)o1 (relative stereo)" target_or_test_system="tobacco cutworm (Spodoptera litura)" readout_label="mortality at 500 µg/mL" recorded_result=100
compound="CCCc1ccc(COC(=O)[C@@H]2[C@H](/C=C(\\Cl)C(F)(F)F)C2(C)C)o1 (relative stereo)" target_or_test_system="tobacco cutworm (Spodoptera litura)" readout_label="mortality at 500 µg/mL" recorded_result=100
compound="C=CCc1ccc(COC(=O)[C@@H]2[C@H](/C=C(\\Cl)C(F)(F)F)C2(C)C)o1 (relative stereo)" target_or_test_system="tobacco cutworm (Spodoptera litura)" readout_label="mortality at 500 µg/mL" recorded_result=100
compound="CCc1ccc(COC(=O)[C@@H]2[C@H](/C=C(\\Cl)C(F)(F)F)C2(C)C)o1 (relative stereo)" target_or_test_system="tobacco cutworm (Spodoptera litura)" readout_label="mortality at 500 µg/mL" recorded_result=100

###

tested on: webbing clothes moth (Tineola bisselliella); assay: Biological Test 12: topical application to larvae of webbing clothes moth, mortality and fabric damage; format: in vivo; details: 3 μg/insect, after 7 days
READOUT_LABEL: degree of damage of the wool muslin fabric

compound="CCc1ccc(COC(=O)[C@@H]2[C@H](/C=C(\\Cl)C(F)(F)F)C2(C)C)o1 (relative stereo)" target_or_test_system="webbing clothes moth (Tineola bisselliella)" recorded_result="no damage"
compound="C=CCc1ccc(COC(=O)[C@@H]2[C@H](/C=C(\\Cl)C(F)(F)F)C2(C)C)o1 (relative stereo)" target_or_test_system="webbing clothes moth (Tineola bisselliella)" recorded_result="no damage"
compound="Cc1ccc(COC(=O)[C@@H]2[C@H](/C=C(\\Cl)C(F)(F)F)C2(C)C)o1 (relative stereo)" target_or_test_system="webbing clothes moth (Tineola bisselliella)" recorded_result="no damage"
compound="CCCc1ccc(COC(=O)[C@@H]2[C@H](/C=C(\\Cl)C(F)(F)F)C2(C)C)o1 (relative stereo)" target_or_test_system="webbing clothes moth (Tineola bisselliella)" recorded_result="no damage"

Provenance of the data: patent US6048892A
